These measurements were taken from the NIST ThermoML archive (doi:10.1021/je300507h).

Task for the reader: assign each of the following molecules its reported viscosity.
# DETAILS: 313.15 K; 101.33 kPa; Liquid; Capillary tube (Ostwald / Ubbelohde) method
Give bare numbers, in mPa·s.

Quick one: give me viscosity for each item below, same order please.
1. CCC(=O)[O-].CCCC[n+]1ccn(C)c1 [3-butyl-1-methyl-1H-imidazolium propanoate]
2. CCCC[n+]1ccn(C)c1.O=C[O-] [3-butyl-1-methyl-1H-imidazolium formate]
3. CCCC(=O)[O-].CCCC[n+]1ccn(C)c1 [3-butyl-1-methyl-1H-imidazolium butanoate]

*A*
[171.5, 80.53, 193.1]

*Q* # query: viscosity of entry CC(=O)[O-].CCCCn1cc[n+](C)c1 [1-butyl-3-methylimidazolium acetate]
*A* 149.9
